Tested on: HepG2
EXPERIMENT_DESCRIPTION: cytotoxicity call (relative viability < 0.9)
REPORTED_CONDITIONS: 10 µM
Screen size: about 39,000 compounds; about 3,300 (8.5%) were called active. This excerpt belongs to a sample that is enriched for actives.
Log the outcome using a class from T (active), F (inactive)

Examples with answers:
C[C@@H]1CN([C@H](C)CO)C(=O)Cc2cc(NC(=O)Nc3cccc4ccccc34)ccc2O[C@H]1CN(C)Cc1ccc2c(c1)OCO2 F
C=CCOC(=O)N(C)C[C@@H]1OCCCC[C@H](C)Oc2ccc(NC(=O)Nc3ccccc3)cc2C(=O)N([C@H](C)COC(=O)c2ccccc2)C[C@H]1C F
C=CCOC(=O)N(C)C[C@H]1OCCCC[C@H](C)Oc2ccc(NC(=O)Nc3ccccc3)cc2C(=O)N([C@@H](C)CO[Si](C)(C)C(C)(C)C)C[C@H]1C T
C[C@@H]1CN([C@@H](C)CO)C(=O)c2cc(NC(=O)Nc3ccc(F)cc3)ccc2O[C@@H](C)CCCCO[C@H]1CN(C)S(=O)(=O)c1ccccc1 F
C[C@H](CO)N1C[C@H](C)[C@H](CN(C)Cc2ccc3c(c2)OCO3)Oc2ccc(NC(=O)Nc3cccc4ccccc34)cc2CC1=O F

Turning now to a further record.
Can you look up the reported call for C[C@@H]1CN([C@@H](C)CO[Si](C)(C)C(C)(C)C)C(=O)c2cc(NC(=O)Nc3ccccc3)ccc2O[C@@H](C)CCCCO[C@H]1CN(C)S(=O)(=O)c1ccc(F)cc1 for me?
T
